Test system: D-type amino acid dehydrogenase derived from N. massiliense (wild type)
run_description: D-amino acid synthesis activity, wild type enzyme
Format: biochemical, Numidum massiliense
condition_notes: 5 mM 2-oxo acid, 0.1 mM NADH, 200 mM ammonium chloride, pH 9.5, 50° C.
Experimental: The activity of the enzyme was measured by determining a decrease in absorbance at wavelength of 340 nm of NADPH or NADH produced by the catalytic reaction of the enzyme. […] The absorbance was measured by an ultraviolet-visible spectrophotometer UV-1800 (available from SHIMADZU).
assay_metric: D-amino acid synthesis activity (specific activity), Wild type, NADH

These recorded examples may help you get a feel for the data.
INSERT INTO measurements (molecule, target_system, endpoint_result) VALUES
  ('CCC(C)C(=O)C(=O)O (stereo not shown) [2-oxo-3-methylpentanoic acid]', 'D-type amino acid dehydrogenase derived from N. massiliense (wild type)', 'No'),
  ('CC(C)C(=O)C(=O)O [2-oxo-3-methylbutanoic acid]', 'D-type amino acid dehydrogenase derived from N. massiliense (wild type)', '0.0012 µmol/min/mg'),
  ('CCCCCCC(=O)C(=O)O [2-oxooctanoic acid]', 'D-type amino acid dehydrogenase derived from N. massiliense (wild type)', 'No'),
  ('O=C(O)C(=O)Cc1ccccc1 [2-oxo-3-phenylpropanoic acid]', 'D-type amino acid dehydrogenase derived from N. massiliense (wild type)', '0.011 µmol/min/mg'),
  ('O=C(O)CCC(=O)C(=O)O [2-oxoglutaric acid]', 'D-type amino acid dehydrogenase derived from N. massiliense (wild type)', 'No'),
  ('CC(=O)C(=O)O [2-oxopropanoic acid]', 'D-type amino acid dehydrogenase derived from N. massiliense (wild type)', '0.13 µmol/min/mg'),
  ('O=C(O)CC(=O)C(=O)O [2-oxobutanedioic acid]', 'D-type amino acid dehydrogenase derived from N. massiliense (wild type)', '0.13 µmol/min/mg'),
  ('CCC(=O)C(=O)O [2-oxobutanoic acid]', 'D-type amino acid dehydrogenase derived from N. massiliense (wild type)', '0.011 µmol/min/mg');

D-amino acid synthesis activity (specific activity), Wild type, NADH for CSCCC(=O)C(=O)O [2-oxo-4-(methylthio)butanoic acid] ?
No

Let us now turn to CC(C)CC(=O)C(=O)O [2-oxo-4-methylpentanoic acid]
No

====

System: three-mutation introduced D-type amino acid dehydrogenase (Thr174Ile, Arg184Met, His230Asn)
run_description: D-amino acid synthesis activity, three-mutation enzyme
Assay type: biochemical, Numidum massiliense
condition_notes: 5 mM 2-oxo acid, 0.1 mM NADH, 200 mM ammonium chloride, pH 9.5, 50° C.
# D-amino acid synthesis activity (specific activity), Three-mutation enzyme, NADH per entry
Write it as a number; the unit µmol/min/mg goes unstated.

Fill blank: measured D-amino acid synthesis activity (specific activity), Three-mutation enzyme, NADH of the compound CSCCC(=O)C(=O)O is ____.
0.013

// next record CCC(=O)C(=O)O
0.028

Another: CC(C)CC(=O)C(=O)O
0.044

Similarly, CCC(C)C(=O)C(=O)O (stereo not shown) ?
0.043

Input O=C(O)C(=O)Cc1ccccc1
0.028

Similarly, CCCCCCC(=O)C(=O)O ?
0.039

====

Tested on: five-mutation introduced D-type amino acid dehydrogenase (Met155Leu, Val159Gly, Thr174Ile, Arg184Met, His230Asn)
run_description: D-amino acid synthesis activity, five-mutation enzyme
Assay type: biochemical, Numidum massiliense
condition_notes: 5 mM 2-oxo acid, 0.1 mM NADH, 200 mM ammonium chloride, pH 9.5, 50° C.
assay_metric: D-amino acid synthesis activity (specific activity), Five-mutation enzyme, NADH (µmol/min/mg)
Form entry: value (µmol/min/mg) — number only.

Please report the recorded D-amino acid synthesis activity (specific activity), Five-mutation enzyme, NADH for CCC(=O)C(=O)O .
0.014

Would you kindly repeat that for CC(=O)C(=O)O ?
0.046

Same read-out for CCCCCCC(=O)C(=O)O ?
0.050

Same again, this time with CCC(C)C(=O)C(=O)O (stereo not shown)
0.025

Please give the result for O=C(O)CC(=O)C(=O)O too.
0.25

Now give it for O=C(O)C(=O)Cc1ccccc1 too.
0.012

CC(C)CC(=O)C(=O)O , same question.
0.055

Similarly, CC(C)C(=O)C(=O)O ?
0.018

Quick one: CSCCC(=O)C(=O)O
0.069

====

# key: entry, value: D-amino acid synthesis activity (specific activity), Three-mutation enzyme, NADH
Test system: three-mutation introduced D-type amino acid dehydrogenase (Thr174Ile, Arg184Met, His230Asn)
run_description: D-amino acid synthesis activity, three-mutation enzyme
Assay type: biochemical, Numidum massiliense
condition_notes: 5 mM 2-oxo acid, 0.1 mM NADH, 200 mM ammonium chloride, pH 9.5, 50° C.
Reply numerically in µmol/min/mg, unit not repeated.

Solved entries:
INSERT INTO assay_data (molecular_string, endpoint_result) VALUES
  ('CC(=O)C(=O)O', 0.000),
  ('CC(C)C(=O)C(=O)O', 0.043);

Which D-amino acid synthesis activity (specific activity), Three-mutation enzyme, NADH reading was recorded for the compound O=C(O)CC(=O)C(=O)O ?
0.12
